Assay: yeast display, Sf9 membrane polyspecificity reagent, FACS + sequencing; frameworks hold sequencing errors

>  <CHAIN>
QVQLVESWGGLVQAGGSLRLSCAASGFTFAYNTMGWYRQAPGTEREWVAAISSSGGSTYYADSVKGRFTISRDNAKNTVYLQMNSLKPEDTAVYDCAAPFWRSFWASDYCGQGTQVTVSS

>  <polyreactivity (PSR sort gate)>
high polyreactivity

$$$$
>  <CHAIN>
QVQLVETGGGLVQAGGSLRLSCASSGFTLRVNDMGWYRQAPGKERELVAGITVSGGSTYYADSVKVRFTISRDNAKNTVYLQMNSLKPEDTAVYYCNADNYENATVMDYWGQGTQVTVSS

>  <polyreactivity (PSR sort gate)>
low polyreactivity

$$$$
>  <CHAIN>
LVQLVESGGGLVQAGGSLRLSCAASGSICNANAMGWYRQAPGKERELVAGIRSGSSTNYADSVKGRVTISRDNAKNTVYLQMNSLKPEDTPVYYCATEGYWVYGFDDEYWGQGTQVTVSS

>  <polyreactivity (PSR sort gate)>
low polyreactivity

$$$$
>  <CHAIN>
QVQLVESGRGLVQAGGSLRLSCAASGRTVWVYTMGWYRQAPGKERELVAAITLSGGSTYYADSVKGRFTISRDNAKNTVYLQMNSLKPEDTAVYYSNARPYYYTYRHSQYYYWGQGTQVTVSS

>  <polyreactivity (PSR sort gate)>
high polyreactivity

$$$$
>  <CHAIN>
QVQLQESGGGLVQAGGSLRLSCAASGNIFSAGGMGWYRQAPVNERELVAGIGTGTSTNYADSVKGRFTISRDNAKNTVYLQMNSLKPEDTAVYYCAAAYYSGLSHWYWGQGTQVTVSS

>  <polyreactivity (PSR sort gate)>
low polyreactivity

$$$$
>  <CHAIN>
QVQLVESGGGLVQAGGSLRLSCAASGSIFVSYAMGWYRQAPGNDRELVAAISGGGVSTYYADSVKGRFSISRDNAKNTVYLQMNSLKPEDTAVYYCATPYVQTGSGYTGDYWGQGTQVTVSS

>  <polyreactivity (PSR sort gate)>
high polyreactivity

$$$$
>  <CHAIN>
QVQLVESGGGLVQAGGSLRLSCAASGSTFNEYVMGWYRQAPGKERELVAAITGGGGRTYYADSVKGRFTISRDNAKNTVYLQMNSQKPEDTAVYYCAKRYLYGTYWGFFRYDYWGQGTQVTVSS

>  <polyreactivity (PSR sort gate)>
low polyreactivity

$$$$
>  <CHAIN>
QVQLVESGGGLVQAGGSLRLSCAASGFIFKRNAMGWYRQATGNERELVAAITKSGVNTYYADSVKGRFTISRDNAKNTVYLQMTSLKPEDTAVYYCAKTLTYGFRRYDYWGQGTQVTVSS

>  <polyreactivity (PSR sort gate)>
high polyreactivity

$$$$
>  <CHAIN>
QVQLEESGGGLVQAGGSLRLSCAASGFTFRYYAMGRYRQAPGKVRELVAVISRTGGSTNFADSVKGRFTISRDNAKKTVYLQMNSLKPEDTAVYYCNAVARYQTKYRYEYWGQGTQETVSS

>  <polyreactivity (PSR sort gate)>
high polyreactivity

$$$$
>  <CHAIN>
QVQLGESGGGLLPAGGSLGLSCAASGSTFGYYAMGWDRQAPGKERELVAAINSGDSTSYADSVKGRFTISRDNAKTTLYLQMNSMKPEDTAVYYCAVRPRRHQYGYWGQGTQVTLSS

>  <polyreactivity (PSR sort gate)>
low polyreactivity

$$$$
>  <CHAIN>
QVQLVESGGGLVQAGGSLRLSCASSGFTFSVYAMGWYRQAPGKERELVAAITWRGGSTYYADSVKGRFTISRDNAKNTVYLQMNSLKPEDTAVYYCAVLYPKYGKRYGYWGQGTQVTVSS

>  <polyreactivity (PSR sort gate)>
high polyreactivity

$$$$
